# System: Candida albicans
# method.notes: In vivo antifungal activity against murine candidosis model after peroral administration with 0.5 mg/kg at various time intervals. (percent protection for 100% mortality with untreated group)
# Assay type: functional
# test.conditions: route oral
# binarize Protection: threshold 10% inclusive, high side true, low side false

Examples with answers:
{"entry.smiles": "Cc1nc(-c2ccc(C(=N)NO)cc2)sc1C(=O)N[C@H](C)[C@](O)(Cn1cncn1)c1ccc(F)cc1F", "target": "Candida albicans", "discrete.label": "false"}
{"entry.smiles": "C[C@@H](c1nc(-c2ccc(C#N)cc2)cs1)[C@](O)(Cn1cncn1)c1ccc(F)cc1F", "target": "Candida albicans", "discrete.label": "true"}
{"entry.smiles": "Cc1nc(-c2ccc(F)cc2)sc1C(=O)N[C@H](C)[C@](O)(Cn1cncn1)c1ccc(F)cc1F", "target": "Candida albicans", "discrete.label": "true"}
{"entry.smiles": "Cc1nc(-c2ccc(OCC(F)(F)C(F)F)cc2)sc1C(=O)N[C@H](C)[C@](O)(Cn1cncn1)c1ccc(F)cc1F", "target": "Candida albicans", "discrete.label": "true"}
{"entry.smiles": "C[C@@H](NC(=O)c1ccc(-c2ccc(C#N)cc2)s1)[C@](O)(Cn1cncn1)c1ccc(F)cc1F", "target": "Candida albicans", "discrete.label": "true"}
{"entry.smiles": "Cc1nc(-c2ccc(C#N)cc2)sc1C(=O)N(C)[C@H](C)[C@](O)(Cn1cncn1)c1ccc(F)cc1F", "target": "Candida albicans", "discrete.label": "true"}
{"entry.smiles": "C[C@@H](NC(=O)c1csc(-c2ccc(Cl)cc2)n1)[C@](O)(Cn1cncn1)c1ccc(F)cc1F", "target": "Candida albicans", "discrete.label": "false"}
{"entry.smiles": "CC(=O)ONC(=N)c1ccc(-c2nc(C)c(C(=O)N[C@H](C)[C@](O)(Cn3cncn3)c3ccc(F)cc3F)s2)cc1", "target": "Candida albicans", "discrete.label": "true"}

Does Protection meet or surpass 10% for Cc1nc(-c2ccc(Cl)cc2)oc1C(=O)N[C@H](C)[C@](O)(Cn1cncn1)c1ccc(F)cc1F ? true

Does Protection meet or surpass 10% for C[C@@H](NC(=O)c1nsc(-c2ccc(Cl)cc2)n1)[C@](O)(Cn1cncn1)c1ccc(F)cc1F ? true

Does Protection meet or surpass 10% for Cc1nc(-c2ccccc2)sc1C(=O)N[C@H](C)[C@](O)(Cn1cncn1)c1ccc(F)cc1F ? true

Does Protection meet or surpass 10% for C[C@@H](NC(=O)c1ccc(-c2ccc(Cl)cc2)o1)[C@](O)(Cn1cncn1)c1ccc(F)cc1F ? false

Does Protection meet or surpass 10% for Cc1nc(-c2ccc(C(N)=O)cc2)sc1C(=O)N[C@H](C)[C@](O)(Cn1cncn1)c1ccc(F)cc1F ? false
